- Method: in vitro
- Assay type: in vitro ADME, rat or human serum
- Recorded conditions: serum, half-life of peptide in serum as detected by HPLC analysis; read-out: HPLC Peptide in Serum t ½ (converted)
Kind request: treat 2 h as inclusive, so half-life at 0.5 mg/mL at 2 h or higher is Satisfied, anything lower is Not satisfied.

Textbook exercise: given the entry H-GWLIQLFHKK-NH2 [XMP.388] , state whether its half-life at 0.5 mg/mL is greater than or equal to 2 h. Not satisfied

Test whether the substance H-KKWLIQLFHKK-NH2 [XMP.352] records half-life at 0.5 mg/mL of 2 h or higher. Not satisfied

half-life at 0.5 mg/mL >= 2 h for H-PWAIQLFHKK-NH2 [XMP.387] ? Satisfied

half-life at 0.5 mg/mL >= 2 h for H-KKWLIQAKK-NH2 [XMP.345] ? Not satisfied

Please tell me: is the substance H-PWLIQLFHKK-NH2 [XMP.355] at or over 2 h in terms of half-life at 0.5 mg/mL? Satisfied

Textbook exercise: given the entry H-KKWLIQLKKK-NH2 [XMP.349] , state whether its half-life at 0.5 mg/mL is greater than or equal to 2 h. Not satisfied

Evaluate H-SKVKWLIQLFHKK-NH2 [XMP.284] : half-life at 0.5 mg/mL at minimum 2 h? Satisfied

Could you tell me if the measured half-life at 0.5 mg/mL of H-KKPWAIQLKK-NH2 [XMP.379] reaches 2 h or more? Not satisfied

Test whether the substance H-KKWAIQLKK-NH2 [XMP.344] records half-life at 0.5 mg/mL of 2 h or higher. Not satisfied

Quick check, half-life at 0.5 mg/mL >= 2 h? H-KSKVGWLIQLFHKK-NH2 [XMP.13] Satisfied
